Tested on: DU-145
Experiment: Cytotoxicity against human DU145 cells by MTT assay
Format: functional, cell-based
Conditions: Homo sapiens, DU-145; read-out: IC50
The entries below come with measured IC50 values attached.
Write down the numeric answer in µM and omit the unit.

Before answering, review these 5 worked examples.
COC(=O)C[C@H]1C[C@@H](O)[C@H](C)[C@@H](c2ccccc2)N1 ... 64.1
COC(=O)C[C@H]1C[C@H](O)[C@@H](C)[C@@H](c2ccc(C(C)C)cc2)N1 ... 27.4
COC(=O)C[C@H]1C[C@@H](O)[C@@H](C)[C@@H](c2ccc(C(C)C)cc2)N1 ... 110
COC(=O)C[C@H]1C[C@@H](O)[C@@H](C)[C@@H](c2ccc(F)cc2)N1 ... 51.7
COC(=O)C[C@H]1C[C@H](O)[C@@H](C)[C@@H](c2ccc(OC)cc2)N1 ... 6.5

# query: IC50 of entry `COc1ccc([C@H]2N[C@@H](CCO)C[C@H](O)[C@H]2C)cc1`
14.8

Given the compound `COc1ccc([C@H]2N[C@@H](CC(=O)O)C[C@H](O)[C@H]2C)cc1` , what is its reported IC50?
15.7

Consider the compound `COC(=O)C[C@@H]1C[C@H](O)[C@H](C)[C@H](c2ccccc2)N1` and give its measured IC50.
11.3

Could you tell me which IC50 is on file for `COC(=O)C[C@H]1C[C@H](O)[C@@H](C)[C@@H](c2ccc(C)cc2)N1` ?
330

Could you tell me which IC50 is on file for `C[C@H]1[C@H](O)C[C@@H](CCO)N[C@H]1c1ccccc1` ?
41.6
